# experiment-summary: Plasma and tissue distribution of Lamivudine in rats, liquid chromatography
# Format: in vivo, rat
# test-context: rat kidney; Lamivudine 15 mg/kg; n = 6; read-out: AUC of Lamivudine, Kidney
reported-endpoint: AUC (µg·h/mL)
Report only the number, with the unit µg·h/mL understood.

Qu. # get_value(readout='AUC', item= Nc1ccn([C@@H]2CS[C@H](CO)O2)c(=O)n1 )
Ans. 0.0243

###

# experiment-summary: Plasma and tissue distribution of Lamivudine in rats, liquid chromatography
# Format: in vivo, rat
# test-context: rat stomach; Lamivudine 15 mg/kg; n = 6; read-out: AUC of Lamivudine, Stomach
reported-endpoint: AUC (ng·h/mL)
# output: bare number, implied unit ng·h/mL

Qu. Look up AUC for this compound: Nc1ccn([C@@H]2CS[C@H](CO)O2)c(=O)n1
Ans. 28.8

###

# experiment-summary: Plasma and tissue distribution of Lamivudine in rats, liquid chromatography
# Format: in vivo, rat
# test-context: rat plasma; Lamivudine 15 mg/kg; n = 6; read-out: AUC of Lamivudine, Plasma
reported-endpoint: AUC (ng·h/mL)
Provide only the numeric value, understood in ng·h/mL.

Qu. Give the measured AUC of Nc1ccn([C@@H]2CS[C@H](CO)O2)c(=O)n1 .
Ans. 25.4

###

# experiment-summary: Tissue distribution of oxymatrine (OM) and its metabolite matrine (M) in rats, LC-MS
# Type: in vivo, rat
# test-context: po; rat spleen; OM 54 mg/kg single administration; sampled at 20, 60, 240 min; n = 6; read-out: AUC of oxymatrine, Spleen
reported-endpoint: AUC
Express your answer as a number followed by its unit.

Qu. Form field: reported AUC of O=C1CCC[C@@H]2[C@H]3CCC[N+]4([O-])CCC[C@@H](CN12)[C@@H]34 (stereo partly shown) [OM, oxymatrine]
Ans. 0.0649 µg·h/mL

###

# experiment-summary: Plasma and tissue distribution of Lamivudine in rats, liquid chromatography
# Format: in vivo, rat
# test-context: rat lung; Lamivudine 15 mg/kg; n = 6; read-out: AUC of Lamivudine, Lung
reported-endpoint: AUC

Qu. Data request, read-out AUC, for Nc1ccn([C@@H]2CS[C@H](CO)O2)c(=O)n1 [Lamivudine]
Ans. 23.1 ng·h/mL

###

# experiment-summary: Plasma and tissue distribution of Lamivudine in rats, liquid chromatography
# Assay type: in vivo, rat
# test-context: rat heart; Lamivudine 15 mg/kg; n = 6; read-out: AUC of Lamivudine, Heart
reported-endpoint: AUC (ng·h/mL)
Only the number, expressed in ng·h/mL, is required.

Qu. Sample Nc1ccn([C@@H]2CS[C@H](CO)O2)c(=O)n1 — what was its AUC?
Ans. 26.8

###

# experiment-summary: Plasma and tissue distribution of Lamivudine in rats, liquid chromatography
# Format: in vivo, rat
# test-context: rat spleen; Lamivudine 15 mg/kg; n = 6; read-out: AUC of Lamivudine, Spleen
# Protocol: The pharmaceutical composition of the present invention enhances the Lamivudine level in the rat liver. Grouping of the test animals and administration are the same as the Example 1 (except that the drug used is the same as Example 3). The dosage of Lamivudine is 15 mg/kg, and the bupleurum root polysaccharides are at a corresponding dosage. The Lamivudine content was determined by liquid chromatography. […] The Lamivudine contents in the plasma and tissue sample are determined.
reported-endpoint: AUC (ng·h/mL)
Quick reminder: number only, in ng·h/mL, skip the unit.

Qu. So what's the measured AUC for this one? Nc1ccn([C@@H]2CS[C@H](CO)O2)c(=O)n1 [Lamivudine]
Ans. 30.2
